Assay: Log D (pH 7.4) measurement, n-octanol/buffer
Details: n-octanol/pH 7.4 buffer
Positions of bridges follow the written chain, without caps; N, C: chain ends. Non-standard residues stand in square brackets, D forms with d. Residues, ends and D or L forms follow the SMILES beside them. *: point of attachment. NMeF = CN[C@@H](Cc1ccccc1)C(=O)O; NMeI = CC[C@H](C)[C@H](NC)C(=O)O; NMeL = CN[C@@H](CC(C)C)C(=O)O; NMeA = CN[C@@H](C)C(=O)O; Piperidide = C1CCN(*)CC1; Sar = CNCC(=O)O; tBu = CC(C)(C)*
parameter: logD at 2 h
Field format: numeric only.

CC[C@H](C)[C@H]1C(=O)N[C@H](C(=O)N2CCCCC2)CC(=O)N[C@H](C(C)C)C(=O)N(C)[C@@H](Cc2ccccc2)C(=O)N(C)[C@@H](CC(C)C)C(=O)N[C@@H]([C@@H](C)O)C(=O)N(C)CC(=O)N(C)[C@@H](CC(C)C)C(=O)N[C@@H](COC(C)(C)C)C(=O)N1C [Compound (5)] ([dV][NMeF][NMeL]T[Sar][NMeL]S(tBu)[NMeI]D-Piperidide; lactam N-9)	4.31

// switching to the query molecule
Challenge: # query: logD at 2 h of entry CC(C)C[C@@H]1NC(=O)[C@H](Cc2ccccc2)N(C)C(=O)[C@H](Cc2ccccc2)N(C)C(=O)[C@H](CC(C)C)NC(=O)[C@H](C)N(C)C(=O)[C@H]([C@@H](C)O)NC(=O)[C@H](C)N(C)C(=O)C[C@@H](C(=O)N2CCCCC2)NC(=O)[C@H](CC(C)C)N(C)C1=O [Compound (4)] ([NMeA]T[NMeA]L[NMeF][NMeF]L[NMeL]D-Piperidide; lactam N-9)
Response given: 5.17

Each recorded value in this set is attributed to patent US20220096379A1.
